Some molecules, each annotated with its measured Emax.
Molecular target: Protein cereblon/Estrogen receptor (Homo sapiens, UniProt P03372+Q96SW2)
Sequence (P03372 whole entry, looked up): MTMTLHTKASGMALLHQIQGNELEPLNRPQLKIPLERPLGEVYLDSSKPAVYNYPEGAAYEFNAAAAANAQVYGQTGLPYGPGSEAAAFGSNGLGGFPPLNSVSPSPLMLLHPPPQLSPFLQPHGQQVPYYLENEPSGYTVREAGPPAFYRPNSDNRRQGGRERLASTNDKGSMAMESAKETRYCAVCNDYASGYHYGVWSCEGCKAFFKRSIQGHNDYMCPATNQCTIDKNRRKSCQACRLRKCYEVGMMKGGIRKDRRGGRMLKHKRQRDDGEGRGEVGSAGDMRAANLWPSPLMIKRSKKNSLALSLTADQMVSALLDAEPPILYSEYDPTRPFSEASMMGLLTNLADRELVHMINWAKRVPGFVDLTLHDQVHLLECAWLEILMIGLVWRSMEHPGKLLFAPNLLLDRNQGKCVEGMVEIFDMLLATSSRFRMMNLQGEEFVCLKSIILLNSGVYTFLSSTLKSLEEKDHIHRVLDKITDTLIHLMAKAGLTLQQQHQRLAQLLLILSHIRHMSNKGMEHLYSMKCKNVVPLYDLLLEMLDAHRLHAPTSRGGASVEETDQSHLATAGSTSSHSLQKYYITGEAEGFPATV
Sequence (Q96SW2 whole entry, looked up): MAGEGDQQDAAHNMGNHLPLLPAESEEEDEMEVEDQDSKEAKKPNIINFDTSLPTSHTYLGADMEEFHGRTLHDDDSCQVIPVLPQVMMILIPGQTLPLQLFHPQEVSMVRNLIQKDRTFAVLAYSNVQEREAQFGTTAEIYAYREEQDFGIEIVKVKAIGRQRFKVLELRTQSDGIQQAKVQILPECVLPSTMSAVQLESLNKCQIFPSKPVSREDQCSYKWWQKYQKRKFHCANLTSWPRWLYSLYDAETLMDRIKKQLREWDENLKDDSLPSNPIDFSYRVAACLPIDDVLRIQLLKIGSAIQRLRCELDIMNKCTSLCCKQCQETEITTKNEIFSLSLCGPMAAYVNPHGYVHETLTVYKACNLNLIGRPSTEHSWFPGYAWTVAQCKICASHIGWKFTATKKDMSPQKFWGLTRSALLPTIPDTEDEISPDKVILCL
Assay: PROTAC activity at CRBN/ERalpha in human MCF7 cells assessed as reduction in ERalpha protein level measured after 12 hrs by Western blot analysis relative to control
Type: cell-based
Just the number please, in %, no unit attached.

Some solved entries appear below for comparison.
MOLECULE	ASSAY RESULT
O=C1CC[C@H](N2Cc3c(ccc4c3OCC43CCN(CC4CCC5(CCN(c6ccc([C@@H]7c8ccc(O)cc8CC[C@@H]7c7ccccc7)cc6)CC5)C4)CC3)C2=O)C(=O)N1 (some centres not stated)	92
O=C1CC[C@H](N2Cc3c(ccc4c3OCC43CCN(C(=O)CN4CCC5(CC4)CCN(c4ccc([C@@H]6c7ccc(O)cc7CC[C@@H]6c6ccccc6)cc4)CC5)CC3)C2=O)C(=O)N1	103

Please fill in: Emax reported for O=C1CCC(N2Cc3c(ccc4c3OCC43CCN(CC4COC5(CCN(c6ccc([C@@H]7c8ccc(O)cc8CC[C@@H]7c7ccccc7)cc6)CC5)C4)CC3)C2=O)C(=O)N1 (some centres not stated) = 79

Form field Emax, entry O=C1CC[C@H](N2Cc3c(ccc4c3OCC43CCN(CCC4CCN(c5ccc([C@@H]6c7ccc(O)cc7CC[C@@H]6c6ccccc6)cc5)CC4)CC3)C2=O)C(=O)N1 : 80

Per the records, this molecule ( C[C@]12CC[C@@H]3c4ccc(O)cc4C[C@@H](CCCCCCCCC[S+]([O-])CCCC(F)(F)C(F)(F)F)[C@H]3[C@@H]1CC[C@@H]2O (some centres not stated) ) has Emax equal to 100

The molecule listed as O=C1CC[C@H](N2Cc3c(ccc4c3OCC43CCN(C(=O)CN4CC5(CCN(c6ccc([C@@H]7c8ccc(O)cc8CC[C@@H]7c7ccccc7)cc6)CC5)C4)CC3)C2=O)C(=O)N1 has a reported Emax of 106

Form: molecule = O=C1CC[C@H](N2Cc3c(ccc4c3OCC43CCN(CC4CCC5(CCN(c6ccc([C@@H]7c8ccc(O)cc8CC[C@@H]7c7ccccc7)cc6)CC5)OC4)CC3)C2=O)C(=O)N1 (some centres not stated) ; Emax = 99

###

Biological target: Cytochrome P450 2B6 (Homo sapiens, UniProt P20813)
Sequence (P20813 whole entry): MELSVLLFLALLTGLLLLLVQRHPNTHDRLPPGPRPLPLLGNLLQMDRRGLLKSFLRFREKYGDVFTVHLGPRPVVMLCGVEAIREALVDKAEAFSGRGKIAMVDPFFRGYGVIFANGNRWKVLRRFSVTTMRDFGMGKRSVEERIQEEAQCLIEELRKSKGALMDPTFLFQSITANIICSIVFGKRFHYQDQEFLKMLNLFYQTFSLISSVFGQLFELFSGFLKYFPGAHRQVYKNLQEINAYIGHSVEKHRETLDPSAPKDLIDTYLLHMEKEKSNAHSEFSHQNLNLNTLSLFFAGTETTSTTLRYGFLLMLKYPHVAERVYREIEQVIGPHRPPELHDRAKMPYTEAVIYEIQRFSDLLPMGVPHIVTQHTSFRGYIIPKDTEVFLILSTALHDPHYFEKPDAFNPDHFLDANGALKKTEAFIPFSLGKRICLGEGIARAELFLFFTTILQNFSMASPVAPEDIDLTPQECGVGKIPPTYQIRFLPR
PROPERTY: IC50 (nM)
All answers are understood in nM, so give the number only.

# IC50 (molecule: O=C1CC[C@H](N2Cc3c(ccc4c3OCC43CCN(C[C@@H]4CCC5(CCN(c6ccc([C@@H]7c8ccc(O)cc8CC[C@@H]7c7ccccc7)cc6)CC5)OC4)CC3)C2=O)C(=O)N1 ) is 2500

The measurements presented in this section are drawn from ChEMBL document CHEMBL6083286.
